Sourced from ChEMBL document CHEMBL3758134

Experiment: Antiproliferative activity against human HCT116 cells assessed as cell viability after 72 hrs by SRB assay
Type: functional, cell-based
Conditions: HCT-116, 72 h
attributeMeasured: IC50 (µM)

[[record]]
compound = "CC[C@H]1O[C@@H]2O[C@H](/C=C/C=C/C=C/c3oc(=O)cc(OC/C=C(\\C)C(=O)OC)c3C)[C@H](O)[C@]2(C)[C@@]1(C)O"
attributemeasured = "IC50"
censoringsign = "="
number = 9

[[record]]
compound = "COc1cc([C@@H]2c3cc4c(cc3[C@@H](O[C@@H]3O[C@@H]5CO[C@@H](C)O[C@H]5[C@H](O)[C@H]3O)[C@H]3COC(=O)[C@H]23)OCO4)cc(OC)c1O [ETOPOSIDE]"
attributemeasured = "IC50"
censoringsign = "="
number = 26.1

[[record]]
compound = "CC[C@H]1O[C@@H]2O[C@H](/C=C/C=C/C=C/c3oc(=O)cc(OC)c3C)[C@H](O)[C@]2(C)[C@@]1(C)O"
attributemeasured = "IC50"
censoringsign = ">"
number = 50

